Recorded values, source paper PMC6066518.

biological target: UniProt:D3ZJ25; test: whole-cell current recording, inhibition of anion leak current in HEK293 cells expressing rat ASCT2
Sequence (D3ZJ25 whole entry): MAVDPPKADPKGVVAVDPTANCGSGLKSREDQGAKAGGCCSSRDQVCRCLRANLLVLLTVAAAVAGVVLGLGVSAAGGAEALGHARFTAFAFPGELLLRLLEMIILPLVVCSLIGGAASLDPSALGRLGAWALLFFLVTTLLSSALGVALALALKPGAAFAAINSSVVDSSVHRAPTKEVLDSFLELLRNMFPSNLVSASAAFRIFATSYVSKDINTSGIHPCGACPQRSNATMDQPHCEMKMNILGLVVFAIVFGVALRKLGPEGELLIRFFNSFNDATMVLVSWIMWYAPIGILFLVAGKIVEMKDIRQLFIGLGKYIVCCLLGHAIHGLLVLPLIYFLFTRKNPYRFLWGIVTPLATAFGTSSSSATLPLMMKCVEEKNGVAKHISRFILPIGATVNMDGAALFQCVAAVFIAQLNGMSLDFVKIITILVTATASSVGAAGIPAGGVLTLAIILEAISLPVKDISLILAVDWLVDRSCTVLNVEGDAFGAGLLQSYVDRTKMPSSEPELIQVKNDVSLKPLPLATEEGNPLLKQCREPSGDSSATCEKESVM
measurement.kind: IC50 (µM)
Provide only the numeric value, understood in µM.

Please look up its IC50: Cc1ccccc1C1(CNC(=O)NC(C(N)=O)c2ccccc2)CC1 (stereo not shown) 67
